System: UACC-62
Test: NCI tumour cell line growth inhibition, 48 h
Active and inactive are the calls of the source. Rule as the data show it: active = GI50 up to about 1.1 µM and inactive = higher.
measurement.name: GI50

Sample records with GI50:
>  <compound>
CC(=O)C1=C(C)NC(=C(C#N)C#N)C(C#N)=C1

>  <system.under.test>
UACC-62

>  <result>
> 100 µM (inactive)

$$$$
>  <compound>
CC1CC(C)C(C#N)N(C)c2ccccc21 (stereo unspecified)

>  <system.under.test>
UACC-62

>  <result>
97.5 µM (inactive)

$$$$
>  <compound>
COc1cc2c3cc1Oc1c(OC)c(OC)cc4c1C(Cc1ccc(O)c(c1)-c1cc(ccc1OC)CC3N(C)CC2)N(C)CC4 (stereo unspecified)

>  <system.under.test>
UACC-62

>  <result>
23.9 µM (inactive)

$$$$
>  <compound>
CN(CCN1CCCC1)C1CCc2cc(Cl)c(Cl)cc2C1 (stereo unspecified)

>  <system.under.test>
UACC-62

>  <result>
5.71 µM (inactive)

$$$$
>  <compound>
C[C@@]12[Se]c3ccccc3[C@]1(C)[Se]c1ccccc12

>  <system.under.test>
UACC-62

>  <result>
2.23 µM (inactive)

$$$$

Specify reported GI50 for the compound shown: C[N+]1(CCN=C=NC2CCCCC2)CCOCC1
> 100 µM (inactive)

Specify reported GI50 for the compound shown: c1ccc([P+](Cc2ccccc2C[P+](c2ccccc2)(c2ccccc2)c2ccccc2)(c2ccccc2)c2ccccc2)cc1
44.2 µM (inactive)

Specify reported GI50 for the compound shown: CC1(C)C2CCC(N)(C2)C1O (stereo unspecified)
> 100 µM (inactive)

Specify reported GI50 for the compound shown: C1CSCCSCCCSC2CCCCC2SC1 (stereo unspecified)
> 100 µM (inactive)

Specify reported GI50 for the compound shown: CCCn1c(SC)nc(COC(=O)NC)c1COC(=O)NC
> 100 µM (inactive)

Specify reported GI50 for the compound shown: Cn1c2ccccc2c2cc(-c3ccccc3)c3c(c21)C(=O)C=CC3=O
19.3 µM (inactive)
